The measurements presented in this section are drawn from patent US10676429B2.

# System: HBV
# Test Name: Anti-HBV activity in stable transfected HepG2.2.15 cell line (HBV DNA from secreted virions, realtime PCR)
# Assay type: cell-based
# Condition Summary: Hepatitis B virus, HepG2.2.15, 144 h, HepG2.2.15 cells, 6 days of treatment, secreted virion HBV DNA; read-out: HepG2 2.15 EC50
Catalogue of log10 EC50 values
Units before log transform: nM; reported quantity: EC50; transform: log10.

Some molecules with known log10 EC50 results, for comparison:
Notebook: "O=C(Nc1ccccc1)c1cccc(S(=O)(=O)NC2CCCCC2)n1" , log10 EC50 read as 4.03

Notebook: "Cc1ccc(S(=O)(=O)NC2(C)COC2)cc1C(=O)Nc1ccc(F)c(C(F)F)c1" , log10 EC50 read as 2.18

Notebook: "Cc1cc(NC(=O)c2cc(S(=O)(=O)N[C@H]3CCOC3)ccc2Br)ccc1F" , log10 EC50 read as 2.63

Notebook: "CN(C(=O)C1CCCCC1)S(=O)(=O)c1cccc(C(=O)Nc2ccc(F)cc2)c1" , log10 EC50 read as 3.47

Field: next molecule
Notebook: Cc1cc(NC(=O)c2cccc(S(=O)(=O)N[C@H]3C[C@@H](O)C3)c2)ccc1F [Compound 184b] , log10 EC50 read as 2.48

* * *

# System: HepG2 cells
# Test Name: Cytotoxicity in HepG2 cells, 4 days, Resazurin assay
# Condition Summary: read-out: HepG2 4 days CC50; HepG2 cells, 4 days, Resazurin
Catalogue of CC50 values

Some compounds with known CC50 results, for comparison:
Notebook: "O=C(Nc1ccc(F)cc1)c1cccc(S(=O)(=O)NC2CCOCC2)c1" , CC50 read as > 100 µM

Notebook: "O=C(Nc1ccc(F)cc1)c1cccc(S(=O)(=O)N[C@@H]2CCOC2)c1" , CC50 read as > 100 µM

Notebook: "COc1cc(NC(=O)c2cccc(S(=O)(=O)N[C@H]3CCOC3)c2)ccc1F" , CC50 read as > 25 µM

Notebook: "CN(C1CCCC1)S(=O)(=O)c1cccc(C(=O)Nc2ccc(F)cc2)c1" , CC50 read as 23.8 µM

Notebook: Cc1cc(NC(=O)c2cccc(S(=O)(=O)NC3Cc4ccccc4C3O)c2)ccc1F (single isomer, unassigned) [Compound 141d] , CC50 read as > 25 µM

Next:
Notebook: "O=C(Nc1ccc(F)cc1)c1cccc(S(=O)(=O)NC2CCCC2)c1" , CC50 read as 32.7 µM

Notebook: "O=C(Nc1ccc(F)cc1)c1cccc(S(=O)(=O)N2CCCCC2)c1" , CC50 read as 70.4 µM

Notebook: Cc1cc(NC(=O)c2cccc(S(=O)(=O)NC3Cc4ccccc4C3O)c2)ccc1F (single isomer, unassigned) [Compound 141c] , CC50 read as > 25 µM

Notebook: Cc1cc(NC(=O)c2cccc(S(=O)(=O)NC3CC(=O)N(C)C3)c2)ccc1F (racemic) [Compound 179b] , CC50 read as > 25 µM

* * *

# Test system: HepG2 cells
# Test Name: Cytotoxicity in HepG2 cells, 4 days, Resazurin assay
# Condition Summary: read-out: HepG2 4 days CC50; HepG2 cells, 4 days, Resazurin
Catalogue of CC50 values

Some compounds with known CC50 results, for comparison:
Hey, HepG2 cells data for "O=C(Nc1ccc(F)cc1)c1cccc(S(=O)(=O)N[C@H]2CCOC2)c1" : CC50 came out at > 100 µM

Hey, HepG2 cells data for "CCC(CC)NS(=O)(=O)c1cccc(C(=O)Nc2ccc(F)cc2)c1" : CC50 came out at 40.3 µM

Hey, HepG2 cells data for Cc1cc(NC(=O)c2cccc(S(=O)(=O)NC3CCC(O)C3)c2)ccc1F (single isomer, unassigned) [Compound 145d] : CC50 came out at > 25 µM

Hey, HepG2 cells data for "Cc1cc(NC(=O)c2cccc(S(=O)(=O)NC3(C)COC3)c2)c(C)cc1F" : CC50 came out at > 25 µM

Hey, HepG2 cells data for "O=C(Nc1ccccc1)c1cc(S(=O)(=O)NC2CCCCC2)ccc1F" : CC50 came out at > 25 µM

Next:
Hey, HepG2 cells data for "Cc1cc(NC(=O)c2cccc(S(=O)(=O)N[C@H]3CCOC3)c2)c(F)cc1F" : CC50 came out at > 25 µM
